Ref: the Human Domainome abundance scans (Beltran et al. 2025)

B1: Arginine-glutamic acid dipeptide repeats protein, residues 502 to 543; numbered along this chain, Q9P2R6 (parent)
chain: LKGYACRHCFTTTSKDWHHGGRENILLCTDCRIHFKKYGELP

variants of: B1; test: abundance fitness (aPCA) (normalised: wild type 0, dead -1); higher = more abundant; growth selection in yeast, the domain comes from the species named; settings: Homo sapiens
// label = yes if abundance fitness is not less than -0.2, otherwise no

- I33L: yes
- K15Y: no
- I33E: yes
- H18F: yes
- G3Q: no
- H18A: yes
- G21L: no
- L1I: yes
- R32V: yes
- F10Y: yes
- G21D: no
- A5Q: yes
- P42G: no
- C9S: no
- R7M: yes
- C6L: no
- Y38L: yes
- E23G: yes
- Y38W: yes
- D16Y: no
- K2N: yes
- H34R: no
- T12M: no
- K15I: no
- Y4P: no
- H8T: no
- C28H: no
- C28K: no
- K36F: yes
- L27C: no
- R22C: yes
- L41C: no
- D16E: yes
- K36C: yes
- S14F: no
- I25Q: yes
- Y38D: yes
- R7N: yes
- C31Y: no
- Y4H: yes
- Y38S: yes
- R7L: yes
- L26A: no
- F10K: yes
- P42L: no
